- targetDesc: Cathepsin K (Homo sapiens)
- Sequence (P43235 whole entry): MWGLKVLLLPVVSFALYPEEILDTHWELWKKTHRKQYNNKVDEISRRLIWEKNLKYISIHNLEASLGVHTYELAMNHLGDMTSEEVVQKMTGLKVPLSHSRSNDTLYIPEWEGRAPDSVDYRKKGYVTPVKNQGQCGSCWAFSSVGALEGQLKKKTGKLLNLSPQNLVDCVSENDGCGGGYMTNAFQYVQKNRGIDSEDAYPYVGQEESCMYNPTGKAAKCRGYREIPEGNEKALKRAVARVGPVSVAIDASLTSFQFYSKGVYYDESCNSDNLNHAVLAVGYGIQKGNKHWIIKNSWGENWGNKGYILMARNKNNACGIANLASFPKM
measuredProperty: IC50 (nM)

In the examples that follow, each entry is paired with its recorded IC50.
[[record]]
compound = "CCCC[C@H](NC(=O)OC(Cc1nnc(-c2ccc(F)cc2)o1)C(C)(C)C)C(=O)C(=O)N[C@H]1CCCNC1=O (some centres not stated)"
uom = "nM"
endpointvalue = 0.65

[[record]]
compound = "CCCC[C@H](NC(=O)O[C@H](Cn1cc(-c2ccc(C(F)(F)F)cc2)cn1)C(C)(C)C)C(=O)C(=O)Nc1ccn[nH]1"
uom = "nM"
endpointvalue = 32

[[record]]
compound = "CCCC[C@H](NC(=O)O[C@H](Cc1nnc(-c2ccccc2)o1)C(C)C)C(=O)C(=O)N[C@H](C)c1ccccc1"
uom = "nM"
endpointvalue = 0.83

[[record]]
compound = "CCCC[C@H](NC(=O)O[C@H](Cn1ccc(-c2ccc(C(F)(F)F)cc2)n1)C(C)(C)C)C(=O)C(=O)NCc1ccno1"
uom = "nM"
endpointvalue = 5.8


A: CCCC[C@H](NC(=O)O[C@H](Cc1nnc(-c2ccc(F)cc2)o1)C(C)(C)C)C(=O)C(=O)Nc1ccn[nH]1
B: CCCC[C@H](NC(=O)O[C@H](Cc1nnc(-c2ccccc2)o1)C(C)(C)CC)C(=O)C(=O)N[C@H](C)c1ccccc1
C: CCCC[C@H](NC(=O)O[C@H](Cn1ccc(-c2ccc(C(F)(F)F)cc2)n1)C(C)(C)C)C(=O)C(=O)Nc1ccn[nH]1
[in] Hey, quick one: sort these by IC50, largest value first please. # answer = labels listed in requested order
[out] C, A, B

====

- targetDesc: Cathepsin L2 (Homo sapiens)
- Sequence (O60911 whole entry): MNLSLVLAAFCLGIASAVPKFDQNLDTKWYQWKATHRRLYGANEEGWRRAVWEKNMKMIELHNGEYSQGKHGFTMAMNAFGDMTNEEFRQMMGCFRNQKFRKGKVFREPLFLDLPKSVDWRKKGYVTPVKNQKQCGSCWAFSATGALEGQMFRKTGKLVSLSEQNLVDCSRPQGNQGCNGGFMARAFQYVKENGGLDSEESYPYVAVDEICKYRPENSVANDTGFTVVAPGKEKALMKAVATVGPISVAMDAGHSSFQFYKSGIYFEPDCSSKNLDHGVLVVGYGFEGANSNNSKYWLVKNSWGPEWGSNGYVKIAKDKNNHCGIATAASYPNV
pIC50: −log10 of the molar value.
measuredProperty: pIC50

[[record]]
molecule = "CCCC[C@H](NC(=O)O[C@H](CN1CCN(c2ccc(C(F)(F)F)cc2)C1=O)C(C)(C)C)C(=O)C(=O)Nc1ccn[nH]1"
endpointvalue = 5.77


I: CCCC[C@H](NC(=O)O[C@H](Cn1ccc(-c2ccc(C(F)(F)F)cc2)n1)C(C)(C)C)C(=O)C(=O)NCc1ccno1
II: CCCC[C@H](NC(=O)O[C@H](Cc1nnc(-c2ccccc2)o1)C(C)(C)C)C(=O)C(=O)N[C@H](C)c1ccccc1
III: CCCC[C@H](NC(=O)O[C@H](Cn1ccc(-c2ccc(C(F)(F)F)cc2)n1)C(C)(C)C)C(=O)C(=O)Nc1ccn[nH]1
[in] Hi! Can you put these in order of pIC50, lowest number first? # respond with the labels, arranged in the requested order
[out] I, II, III
(I: 4.44, II: 5.80, III: 6.77)

1: CCCC[C@H](NC(=O)O[C@H](Cn1cnc(-c2ccc(C(F)(F)F)cc2)c1)C(C)(C)C)C(=O)C(=O)Nc1nccs1
2: CCCC[C@H](NC(=O)O[C@H](Cc1nnc(-c2ccc(C(F)(F)F)cc2)o1)C(C)(C)C)C(=O)C(=O)Nc1ccn[nH]1
[in] Given 1 and given 2 , which shows the smaller recorded pIC50? Pick one; state its label.
[out] 1
